Target: UniProt:Q61143
Sequence (whole entry): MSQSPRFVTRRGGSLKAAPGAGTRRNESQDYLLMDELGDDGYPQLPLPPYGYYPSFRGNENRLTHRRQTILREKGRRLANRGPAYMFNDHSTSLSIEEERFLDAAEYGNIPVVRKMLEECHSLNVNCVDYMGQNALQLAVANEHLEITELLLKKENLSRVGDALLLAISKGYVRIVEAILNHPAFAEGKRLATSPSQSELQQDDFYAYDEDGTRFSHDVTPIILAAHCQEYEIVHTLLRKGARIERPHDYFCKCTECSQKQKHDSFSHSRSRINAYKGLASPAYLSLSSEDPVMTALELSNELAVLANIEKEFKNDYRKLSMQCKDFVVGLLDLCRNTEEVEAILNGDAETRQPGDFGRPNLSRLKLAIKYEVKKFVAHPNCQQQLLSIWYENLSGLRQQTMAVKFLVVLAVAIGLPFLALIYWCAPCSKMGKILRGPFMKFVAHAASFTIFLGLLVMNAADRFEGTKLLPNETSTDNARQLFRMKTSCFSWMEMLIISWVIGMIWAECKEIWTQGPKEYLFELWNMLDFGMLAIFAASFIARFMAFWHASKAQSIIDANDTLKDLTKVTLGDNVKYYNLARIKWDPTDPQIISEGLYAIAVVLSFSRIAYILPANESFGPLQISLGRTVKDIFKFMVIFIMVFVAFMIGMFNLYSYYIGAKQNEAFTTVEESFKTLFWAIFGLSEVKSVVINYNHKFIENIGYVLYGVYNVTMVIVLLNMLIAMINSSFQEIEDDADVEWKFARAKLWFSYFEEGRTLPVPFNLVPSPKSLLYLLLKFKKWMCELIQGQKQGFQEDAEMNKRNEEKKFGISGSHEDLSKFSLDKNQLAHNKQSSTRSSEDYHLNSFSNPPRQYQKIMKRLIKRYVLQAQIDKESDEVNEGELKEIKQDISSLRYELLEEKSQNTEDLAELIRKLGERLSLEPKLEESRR
Assay: Antagonist activity at mouse TRPC6 stably expressed in HEK293 cells assessed as inhibition of calcium influx at 10 uM by calcium fluorescence assay relative to control
Assay type: cell-based
Label false (0) if inhibition falls below 20%; label true (1) in every other case.

SMILES NOTATION	SYSTEM TESTED	ANSWER LABEL
CCOC(=O)c1csc(N(CCN)Cc2ccc(OC(F)F)cc2)n1	UniProt:Q61143	true (1)
CCOC(=O)c1csc(N(CCNC(=O)OC(C)(C)C)C(=O)c2ccc([N+](=O)[O-])cc2)n1	UniProt:Q61143	true (1)
CCOC(=O)c1csc(N(CCNS(N)(=O)=O)Cc2ccc3ccccc3c2)n1	UniProt:Q61143	false (0)
CCOC(=O)c1csc(N(CCN)Cc2ccccc2)n1	UniProt:Q61143	true (1)
NCCN(Cc1cccc(C(F)(F)F)c1)c1nc(C(=O)Nc2ccc(O)cc2)cs1	UniProt:Q61143	false (0)
CCOC(=O)c1csc(N(CCN)C(=O)c2ccc([N+](=O)[O-])cc2)n1	UniProt:Q61143	true (1)
CCOC(=O)c1csc(N(CCN)Cc2cccc(F)c2F)n1	UniProt:Q61143	false (0)
NCCN(Cc1cccc(C(F)(F)F)c1)c1nc(C(=O)Nc2ncc[nH]2)cs1	UniProt:Q61143	false (0)
CCOC(=O)c1csc(N(CCN)Cc2c(F)c(F)c(F)c(F)c2F)n1	UniProt:Q61143	true (1)
CCOC(=O)c1csc(N(CCN)Cc2ccc([N+](=O)[O-])cc2)n1	UniProt:Q61143	true (1)
CCOC(=O)c1csc(N(CCNC(=O)OC(C)(C)C)C(=O)c2ccc(C(F)(F)F)cc2)n1	UniProt:Q61143	false (0)
CCOC(=O)c1csc(N(CCNS(C)(=O)=O)Cc2ccc3ccccc3c2)n1	UniProt:Q61143	true (1)
NCCN(Cc1ccc2ccccc2c1)c1nc(C(=O)O)cs1	UniProt:Q61143	true (1)
NCCN(Cc1ccc2ccccc2c1)c1nc(C(=O)NC23CC4CC(CC(C4)C2)C3)cs1	UniProt:Q61143	true (1)
CCOC(=O)c1csc(NCCN)n1	UniProt:Q61143	false (0)
CCOC(=O)c1csc(N(CCN)Cc2cccc([N+](=O)[O-])c2)n1	UniProt:Q61143	true (1)

* * *

assay: AUC (0 to t) in BALB/c mouse at 25 mg/kg, ip administered as liposome encapsulated form and measured upto 24 hrs by LC-MS/MS analysis; format: ADME, organism-based; conditions: in vivo

SMILES NOTATION	AUC(0-t) at 24 h, ng·h/mL
NCCN(Cc1ccc2ccccc2c1)c1nc(C(=O)Nc2ccc(O)cc2)cs1	6840

* * *

assay: Apparent clearance in BALB/c mouse at 12.5 mg/kg, ip administered as liposome encapsulated form and measured upto 24 hrs by LC-MS/MS analysis; type: ADME, organism-based; conditions: in vivo, read-out: CL(app) (converted)

SMILES NOTATION	CL/F
NCCN(Cc1ccc2ccccc2c1)c1nc(C(=O)Nc2ccc(O)cc2)cs1	74.6 mL/min/kg

* * *

biological target: Short transient receptor potential channel 6 (Homo sapiens)
Sequence (Q9Y210 whole entry): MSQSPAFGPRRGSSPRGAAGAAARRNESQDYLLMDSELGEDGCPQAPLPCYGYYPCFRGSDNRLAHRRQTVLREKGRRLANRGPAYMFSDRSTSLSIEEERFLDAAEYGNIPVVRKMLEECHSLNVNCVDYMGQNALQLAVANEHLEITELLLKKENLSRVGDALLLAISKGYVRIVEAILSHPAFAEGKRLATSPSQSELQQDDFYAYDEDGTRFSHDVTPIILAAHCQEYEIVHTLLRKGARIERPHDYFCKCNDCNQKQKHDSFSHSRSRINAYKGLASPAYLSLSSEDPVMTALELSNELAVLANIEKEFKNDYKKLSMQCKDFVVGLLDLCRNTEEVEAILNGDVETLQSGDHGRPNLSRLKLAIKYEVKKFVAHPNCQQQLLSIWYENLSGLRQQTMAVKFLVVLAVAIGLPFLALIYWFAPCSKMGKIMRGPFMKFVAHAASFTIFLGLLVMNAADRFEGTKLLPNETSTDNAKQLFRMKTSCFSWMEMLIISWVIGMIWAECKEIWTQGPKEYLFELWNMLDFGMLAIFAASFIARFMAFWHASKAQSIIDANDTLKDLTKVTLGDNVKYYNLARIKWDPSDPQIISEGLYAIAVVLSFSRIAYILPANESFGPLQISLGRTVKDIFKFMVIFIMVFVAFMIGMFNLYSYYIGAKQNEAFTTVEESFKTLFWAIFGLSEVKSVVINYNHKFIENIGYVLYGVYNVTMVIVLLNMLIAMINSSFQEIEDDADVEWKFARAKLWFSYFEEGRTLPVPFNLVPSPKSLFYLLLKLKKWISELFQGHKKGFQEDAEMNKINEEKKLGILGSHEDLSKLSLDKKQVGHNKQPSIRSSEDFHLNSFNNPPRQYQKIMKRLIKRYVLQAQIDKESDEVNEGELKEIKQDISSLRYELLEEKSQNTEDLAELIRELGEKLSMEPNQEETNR
pIC50: −log10 of the molar value.
READOUT LABEL: pIC50

COMPOUND	TEST RESULT
N#Cc1ccc(O[C@@H]2c3ccccc3C[C@@H]2N2CCC[C@@H](N)C2)cc1	9.66
CC1CC(C)CN(C(=O)c2csc(Nc3ccc4c(c3)OCO4)n2)C1 (centres undefined)	8.00
C=C[C@@](C)(O)CC[C@H]1C(=C)C[C@H](OC(=O)NC)[C@H]2C(C)(C)CCC[C@]12C	8.24
O=C1O/C(=C/Br)CCC1c1cccc2ccccc12 (centres undefined) [BROMOENOL LACTONE]	5.14

* * *

biological target: UniProtKB Q13507; experiment: Antagonist activity at TRPC3 (unknown origin) assessed as inhibition of channel activity
Sequence (Q13507 whole entry): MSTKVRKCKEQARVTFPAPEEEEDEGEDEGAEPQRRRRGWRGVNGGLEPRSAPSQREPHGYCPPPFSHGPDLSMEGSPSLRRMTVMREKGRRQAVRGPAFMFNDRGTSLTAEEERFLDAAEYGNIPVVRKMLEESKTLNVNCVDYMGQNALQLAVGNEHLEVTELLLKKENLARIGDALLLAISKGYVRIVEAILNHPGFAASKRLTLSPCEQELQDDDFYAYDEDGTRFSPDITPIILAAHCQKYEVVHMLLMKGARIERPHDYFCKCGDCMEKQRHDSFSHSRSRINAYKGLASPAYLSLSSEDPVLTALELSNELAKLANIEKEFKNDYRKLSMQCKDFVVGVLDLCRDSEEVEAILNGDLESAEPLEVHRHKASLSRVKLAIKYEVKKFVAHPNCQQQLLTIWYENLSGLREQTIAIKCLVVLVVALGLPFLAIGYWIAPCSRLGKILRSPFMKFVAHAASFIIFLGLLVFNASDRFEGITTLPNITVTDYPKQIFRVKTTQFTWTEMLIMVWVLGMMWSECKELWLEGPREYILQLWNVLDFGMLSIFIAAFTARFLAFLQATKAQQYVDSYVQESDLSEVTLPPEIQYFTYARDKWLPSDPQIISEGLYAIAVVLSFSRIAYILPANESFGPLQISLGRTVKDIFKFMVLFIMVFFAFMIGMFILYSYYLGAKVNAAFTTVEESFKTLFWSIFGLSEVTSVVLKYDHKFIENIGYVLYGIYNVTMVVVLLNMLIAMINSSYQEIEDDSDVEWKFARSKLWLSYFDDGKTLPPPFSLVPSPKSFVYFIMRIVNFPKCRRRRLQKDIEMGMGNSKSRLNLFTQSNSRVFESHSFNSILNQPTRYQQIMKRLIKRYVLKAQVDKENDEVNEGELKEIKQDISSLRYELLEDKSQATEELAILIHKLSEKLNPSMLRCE
pIC50: −log10 of the molar value.
Catalogue of pIC50 readings, one per entry.

MOLECULE	pIC50
CC1CC(C)CN(C(=O)c2csc(Nc3ccc4c(c3)OCO4)n2)C1 (centres undefined)	8.00
CC1CCCN(C(=O)c2nc(Nc3cc4c(cc3F)OCO4)sc2Cl)C1C (centres undefined)	8.30
Cc1sc(Nc2ccc(Cl)cc2F)nc1C(=O)N1CCC[C@H](C)[C@@H]1C	8.52
C=C[C@@](C)(O)CC[C@H]1C(=C)C[C@H](OC(=O)NC)[C@H]2C(C)(C)CCC[C@]12C	6.08

* * *

test: Apparent clearance in BALB/c mouse at 25 mg/kg, ip administered as liposome encapsulated form and measured upto 24 hrs by LC-MS/MS analysis; format: ADME, organism-based; conditions: in vivo, read-out: CL(app) (converted)

SMILES NOTATION	CL/F / mL/min/kg
NCCN(Cc1ccc2ccccc2c1)c1nc(C(=O)Nc2ccc(O)cc2)cs1	60.2

* * *

test: AUC (0 to infinity) in BALB/c mouse at 50 mg/kg, ip administered as liposome encapsulated form and measured upto 24 hrs by LC-MS/MS analysis; assay type: ADME, organism-based; details: in vivo
READOUT LABEL: AUC(0-inf) (ng·h/mL)

SMILES NOTATION	TEST RESULT
NCCN(Cc1ccc2ccccc2c1)c1nc(C(=O)Nc2ccc(O)cc2)cs1	16800

* * *

assay: Apparent clearance in BALB/c mouse at 50 mg/kg, ip administered as liposome encapsulated form and measured upto 24 hrs by LC-MS/MS analysis; assay type: ADME, organism-based; conditions: in vivo, read-out: CL(app) (converted)
READOUT LABEL: CL/F (mL/min/kg)

SMILES NOTATION	RESULT UNIT	TEST RESULT
NCCN(Cc1ccc2ccccc2c1)c1nc(C(=O)Nc2ccc(O)cc2)cs1	mL/min/kg	49.6

* * *

target: Short transient receptor potential channel 5 (Homo sapiens); assay: Antagonist activity at TRPC5 (unknown origin) assessed as inhibition of channel activity
Sequence (Q9UL62 whole entry): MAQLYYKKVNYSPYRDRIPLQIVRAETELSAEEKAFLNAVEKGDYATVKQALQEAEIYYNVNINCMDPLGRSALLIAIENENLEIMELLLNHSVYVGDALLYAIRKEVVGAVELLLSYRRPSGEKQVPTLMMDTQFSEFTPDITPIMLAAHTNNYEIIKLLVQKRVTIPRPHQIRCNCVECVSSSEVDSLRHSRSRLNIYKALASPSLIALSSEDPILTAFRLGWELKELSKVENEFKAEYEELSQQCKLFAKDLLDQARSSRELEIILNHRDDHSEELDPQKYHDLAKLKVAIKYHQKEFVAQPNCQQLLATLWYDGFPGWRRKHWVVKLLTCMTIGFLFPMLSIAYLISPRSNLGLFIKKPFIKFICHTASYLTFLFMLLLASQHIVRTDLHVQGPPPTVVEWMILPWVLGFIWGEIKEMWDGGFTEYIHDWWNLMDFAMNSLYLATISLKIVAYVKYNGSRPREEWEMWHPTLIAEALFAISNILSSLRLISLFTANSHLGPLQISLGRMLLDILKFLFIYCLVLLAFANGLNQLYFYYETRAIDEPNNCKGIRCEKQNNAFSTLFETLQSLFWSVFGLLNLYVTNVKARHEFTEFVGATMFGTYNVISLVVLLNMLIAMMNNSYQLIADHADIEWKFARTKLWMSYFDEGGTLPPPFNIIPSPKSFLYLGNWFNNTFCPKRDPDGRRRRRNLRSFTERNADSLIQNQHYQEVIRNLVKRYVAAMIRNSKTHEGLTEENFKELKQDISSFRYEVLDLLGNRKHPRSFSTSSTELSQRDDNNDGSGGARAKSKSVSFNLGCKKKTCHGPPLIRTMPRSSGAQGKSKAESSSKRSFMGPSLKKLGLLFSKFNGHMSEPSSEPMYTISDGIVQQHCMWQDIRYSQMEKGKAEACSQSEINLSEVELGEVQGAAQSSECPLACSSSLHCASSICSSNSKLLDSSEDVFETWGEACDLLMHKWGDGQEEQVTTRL
pIC50: −log10 of the molar value.

MOLECULE	pIC50
O=C1O/C(=C/Br)CCC1c1cccc2ccccc12 (stereo unspecified)	4.97

* * *

tested on: LNCaP; experiment: Antiproliferative activity against human LNCaP cells assessed as reduction in cell viability incubated for 72 hrs by MTT assay; type: functional, cell-based
pIC50: −log10 of the molar value.

SMILES NOTATION	pIC50
NCCN(Cc1ccc2ccccc2c1)c1nc(C(=O)Nc2ccc(O)cc2)cs1	5.08

* * *

target: Short transient receptor potential channel 7 (Homo sapiens); experiment: Antagonist activity at human TRPC7 stably expressed in HEK293 cells inhibition of calcium influx by calcium fluorescence assay
Sequence (Q9HCX4 whole entry): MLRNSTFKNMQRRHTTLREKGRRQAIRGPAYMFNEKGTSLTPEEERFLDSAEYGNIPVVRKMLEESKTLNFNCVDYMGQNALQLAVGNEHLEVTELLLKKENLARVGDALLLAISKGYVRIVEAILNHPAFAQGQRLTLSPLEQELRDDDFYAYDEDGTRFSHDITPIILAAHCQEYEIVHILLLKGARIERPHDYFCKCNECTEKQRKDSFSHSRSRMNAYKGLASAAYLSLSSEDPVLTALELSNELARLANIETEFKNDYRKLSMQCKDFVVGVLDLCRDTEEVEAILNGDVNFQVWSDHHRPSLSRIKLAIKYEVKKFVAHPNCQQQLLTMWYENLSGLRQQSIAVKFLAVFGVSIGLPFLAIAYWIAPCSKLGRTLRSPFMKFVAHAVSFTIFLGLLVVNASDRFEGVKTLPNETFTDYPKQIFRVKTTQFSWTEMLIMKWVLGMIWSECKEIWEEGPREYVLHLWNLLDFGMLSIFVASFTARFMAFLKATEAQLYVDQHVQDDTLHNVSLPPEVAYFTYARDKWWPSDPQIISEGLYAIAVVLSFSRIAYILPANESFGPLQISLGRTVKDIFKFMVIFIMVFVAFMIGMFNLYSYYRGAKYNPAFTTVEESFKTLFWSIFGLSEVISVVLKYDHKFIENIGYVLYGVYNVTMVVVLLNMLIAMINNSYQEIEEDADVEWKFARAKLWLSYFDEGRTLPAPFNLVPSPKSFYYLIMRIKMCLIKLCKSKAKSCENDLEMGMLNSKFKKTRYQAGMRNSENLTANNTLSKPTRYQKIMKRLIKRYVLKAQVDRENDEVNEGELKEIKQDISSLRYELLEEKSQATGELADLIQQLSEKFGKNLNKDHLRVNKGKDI

SMILES NOTATION	SYSTEM TESTED	IC50 / µM
NCCN(Cc1ccc2ccccc2c1)c1nc(C(=O)Nc2ccc(O)cc2)cs1	Short transient receptor potential channel 7 (Homo sapiens)	3.4

* * *

assay: AUC (0 to infinity) in BALB/c mouse at 25 mg/kg, ip administered as liposome encapsulated form and measured upto 24 hrs by LC-MS/MS analysis; type: ADME, organism-based; conditions: in vivo
READOUT LABEL: AUC(0-inf) (ng·h/mL)

SMILES NOTATION	READOUT LABEL	RESULT UNIT	TEST RESULT
NCCN(Cc1ccc2ccccc2c1)c1nc(C(=O)Nc2ccc(O)cc2)cs1	AUC(0-inf)	ng·h/mL	6920
